tested on: 496974-208-R-J2-PDC complex spheroids, growth % test/control; test: Anticancer human tumor 496974-208-R-J2-PDC patient-derived pancreatic carcinoma cell line growth inhibition [CLK]; conditions: curve of first compound; second compound 0.1 µM
Can you tell me IC50 for the items I'm about to list?
The reply should contain only the number, in µM.

May I ask what IC50 has been recorded for COc1c(OCCCN2CCOCC2)ccc2c3n(c(=NC(=O)c4cnc(N)nc4)nc12)CCN3 + CNC(=O)c1ccc(Nc2nc(OC3CCCC3)c3c(-c4ccc5nc(C)oc5c4)c[nH]c3n2)c(OC)c1 ?
0.0162

May I ask what IC50 has been recorded for O=c1[nH]cc(F)c(=O)[nH]1 + CN1CCN(c2cc(C(=O)Nc3cc4cc(-c5cnn(C)c5)ccc4cn3)ccn2)CC1 ?
4.19

* * *

system: 496974-208-R-J2-PDC complex spheroids, growth % test/control; assay: Anticancer human tumor 496974-208-R-J2-PDC cell line growth inhibition [CLK]; conditions: second compound 10 µM; first compound 0.1 µM; stronger effect = lower value;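 note: spheroids exposed to the drugs for 7 days before readout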;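 for viability, T/C: 100% = DMSO vehicle control wells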
Can you tell me viability, T/C for the items I'm about to list?
The reply should contain only the number, in %.

Lab request: please report viability, T/C under test system 496974-208-R-J2-PDC complex spheroids, growth % test/control for C=C(F)C(=O)N1CCN(c2nc(OCC3CCCN3C)nc3c2CCN(c2cccc4cccc(Cl)c24)C3)CC1CC#N (stereo not given) + CN1CCN(c2cc(C(=O)Nc3cc4cc(-c5cnn(C)c5)ccc4cn3)ccn2)CC1
0.35

Lab request: please report viability, T/C under test system 496974-208-R-J2-PDC complex spheroids, growth % test/control for Cn1ncnc1[C@H]1c2n[nH]c(=O)c3cc(F)cc(c23)N[C@@H]1c1ccc(F)cc1 + CN1CCN(c2cc(C(=O)Nc3cc4cc(-c5cnn(C)c5)ccc4cn3)ccn2)CC1
2.04

Lab request: please report viability, T/C under test system 496974-208-R-J2-PDC complex spheroids, growth % test/control for C#Cc1c(F)ccc2cc(O)cc(-c3ncc4c(N5CC6CCC(C5)N6)nc(OCC56CCCN5CC(F)C6)nc4c3F)c12 (stereo not given) + CN1CCN(c2cc(C(=O)Nc3cc4cc(-c5cnn(C)c5)ccc4cn3)ccn2)CC1
0.2

Lab request: please report viability, T/C under test system 496974-208-R-J2-PDC complex spheroids, growth % test/control for O=C(c1cc(Cc2n[nH]c(=O)c3ccccc23)ccc1F)N1CCN(C(=O)C2CC2)CC1 + CN1CCN(c2cc(C(=O)Nc3cc4cc(-c5cnn(C)c5)ccc4cn3)ccn2)CC1
0.24

Lab request: please report viability, T/C under test system 496974-208-R-J2-PDC complex spheroids, growth % test/control for COc1cccc2c1C(=O)c1c(O)c3c(c(O)c1C2=O)CC(O)(C(=O)CO)CC3OC1CC(N)C(O)C(C)O1 (stereo not given) + CN1CCN(c2cc(C(=O)Nc3cc4cc(-c5cnn(C)c5)ccc4cn3)ccn2)CC1
1.44

* * *

tested on: 496974-208-R-J2-PDC complex spheroids, growth % test/control; test: Anticancer human tumor 496974-208-R-J2-PDC cell line growth inhibition [CLK]; details: second compound 0.316 µM; first compound 0.316 µM; stronger effect = lower value;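 note: spheroids exposed to the drugs for 7 days before readout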;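 for viability, T/C: 100% = DMSO vehicle control wells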
Result type: viability, T/C (%)
The reply should contain only the number, in %.

May I ask what viability, T/C has been recorded for Nc1ccn(C2OC(CO)C(O)C2(F)F)c(=O)n1 (stereo not given) + CNC(=O)c1ccc(Nc2nc(OC3CCCC3)c3c(-c4ccc5nc(C)oc5c4)c[nH]c3n2)c(OC)c1 ?
69.9

May I ask what viability, T/C has been recorded for CC1(C)CCC(CN2CCN(c3ccc(C(=O)NS(=O)(=O)c4ccc(NCC5CCOCC5)c([N+](=O)[O-])c4)c(Oc4cnc5[nH]ccc5c4)c3)CC2)=C(c2ccc(Cl)cc2)C1 + CNC(=O)c1ccc(Nc2nc(OC3CCCC3)c3c(-c4ccc5nc(C)oc5c4)c[nH]c3n2)c(OC)c1 ?
73.6

May I ask what viability, T/C has been recorded for COc1c(OCCCN2CCOCC2)ccc2c3n(c(=NC(=O)c4cnc(N)nc4)nc12)CCN3 + CN1CCN(c2cc(C(=O)Nc3cc4cc(-c5cnn(C)c5)ccc4cn3)ccn2)CC1 ?
0.53

May I ask what viability, T/C has been recorded for C=CC(=O)N1CCN(c2nc(=O)n(-c3c(C)ccnc3C(C)C)c3nc(-c4c(O)cccc4F)c(F)cc23)C(C)C1 (stereo not given) + CN1CCN(c2cc(C(=O)Nc3cc4cc(-c5cnn(C)c5)ccc4cn3)ccn2)CC1 ?
8.72

May I ask what viability, T/C has been recorded for CC(Nc1ccc2c(c1)OCCn1cc(N3C(=O)OCC3C(F)F)nc1-2)C(N)=O (stereo not given) + CN1CCN(c2cc(C(=O)Nc3cc4cc(-c5cnn(C)c5)ccc4cn3)ccn2)CC1 ?
2.52

* * *

System: 496974-208-R-J2-PDC complex spheroids, growth % test/control
Assay: Anticancer human tumor 496974-208-R-J2-PDC cell line growth inhibition [CLK];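 note: spheroids exposed to the drugs for 7 days before readout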
Details: curve of first compound; second compound 10 µM
Excerpt: A high-throughput screen of multi-cell type tumor spheroids was designed to identify active combinations of […] and targeted small molecules. Complex spheroids include a stromal component modeled by human endothelial cells (HUVEC) and fibroblasts modeled by human mesenchymal stem cells (MSCs). […] Compounds. […] If the clinical Cmax for an agent had not been determined, the highest concentration tested was 10 microM. […]
Can you tell me IC50 for the items I'm about to list?

May I ask what IC50 has been recorded for COC1C=CCC(C)C(C)S(=O)(=O)NC(=O)c2ccc3c(c2)N(CC2CCC21)CC1(CCCc2cc(Cl)ccc21)CO3 (stereo not drawn) + CN1CCN(c2cc(C(=O)Nc3cc4cc(-c5cnn(C)c5)ccc4cn3)ccn2)CC1 ?
< 0.0316 µM

May I ask what IC50 has been recorded for COC1C=CCC(C)C(C)S(=O)(=O)NC(=O)c2ccc3c(c2)N(CC2CCC21)CC1(CCCc2cc(Cl)ccc21)CO3 (stereo not drawn) + CNC(=O)c1ccc(Nc2nc(OC3CCCC3)c3c(-c4ccc5nc(C)oc5c4)c[nH]c3n2)c(OC)c1 ?
0.0409 µM

May I ask what IC50 has been recorded for Nc1ccn(C2OC(CO)C(O)C2(F)F)c(=O)n1 (stereo not drawn) + CN1CCN(c2cc(C(=O)Nc3cc4cc(-c5cnn(C)c5)ccc4cn3)ccn2)CC1 ?
< 0.0316 µM

* * *

Can you tell me IC50 for the items I'm about to list?
system: 496974-208-R-J2-PDC complex spheroids, growth % test/control; assay: Anticancer human tumor 496974-208-R-J2-PDC cell line growth inhibition [CLK]; details: curve of first compound; second compound 1 µM;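 note: spheroids exposed to the drugs for 7 days before readout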

Lab request: please report IC50 under test system 496974-208-R-J2-PDC complex spheroids, growth % test/control for CCCS(=O)(=O)Nc1ccc(F)c(C(=O)c2c[nH]c3ncc(-c4ccc(Cl)cc4)cc23)c1F + CNC(=O)c1ccc(Nc2nc(OC3CCCC3)c3c(-c4ccc5nc(C)oc5c4)c[nH]c3n2)c(OC)c1
2590 nM

Lab request: please report IC50 under test system 496974-208-R-J2-PDC complex spheroids, growth % test/control for COc1ccc([C@@H](O)c2cc(-c3ncnc4cc(N5CCOCC5)ccc34)c(F)cc2Cl)nn1 + CNC(=O)c1ccc(Nc2nc(OC3CCCC3)c3c(-c4ccc5nc(C)oc5c4)c[nH]c3n2)c(OC)c1
1710 nM

Lab request: please report IC50 under test system 496974-208-R-J2-PDC complex spheroids, growth % test/control for NC(=O)C(=Cn1cnc(-c2cc(C(F)(F)F)cc(C(F)(F)F)c2)n1)c1cncnc1 + CNC(=O)c1ccc(Nc2nc(OC3CCCC3)c3c(-c4ccc5nc(C)oc5c4)c[nH]c3n2)c(OC)c1
< 9.49 nM

Lab request: please report IC50 under test system 496974-208-R-J2-PDC complex spheroids, growth % test/control for Nc1ccn(C2OC(CO)C(O)C2(F)F)c(=O)n1 (stereo not drawn) + CNC(=O)c1ccc(Nc2nc(OC3CCCC3)c3c(-c4ccc5nc(C)oc5c4)c[nH]c3n2)c(OC)c1
2760 nM

Lab request: please report IC50 under test system 496974-208-R-J2-PDC complex spheroids, growth % test/control for CC(Nc1ccc2c(c1)OCCn1cc(N3C(=O)OCC3C(F)F)nc1-2)C(N)=O (stereo not drawn) + CNC(=O)c1ccc(Nc2nc(OC3CCCC3)c3c(-c4ccc5nc(C)oc5c4)c[nH]c3n2)c(OC)c1
68.7 nM

Lab request: please report IC50 under test system 496974-208-R-J2-PDC complex spheroids, growth % test/control for Nc1ccn(C2OC(CO)C(O)C2(F)F)c(=O)n1 (stereo not drawn) + CN1CCN(c2cc(C(=O)Nc3cc4cc(-c5cnn(C)c5)ccc4cn3)ccn2)CC1
< 31.6 nM

Lab request: please report IC50 under test system 496974-208-R-J2-PDC complex spheroids, growth % test/control for CC(Nc1ccc2c(c1)OCCn1cc(N3C(=O)OCC3C(F)F)nc1-2)C(N)=O (stereo not drawn) + CN1CCN(c2cc(C(=O)Nc3cc4cc(-c5cnn(C)c5)ccc4cn3)ccn2)CC1
< 31.6 nM

Lab request: please report IC50 under test system 496974-208-R-J2-PDC complex spheroids, growth % test/control for C#Cc1c(F)ccc2cc(O)cc(-c3ncc4c(N5CC6CCC(C5)N6)nc(OCC56CCCN5CC(F)C6)nc4c3F)c12 (stereo not drawn) + CNC(=O)c1ccc(Nc2nc(OC3CCCC3)c3c(-c4ccc5nc(C)oc5c4)c[nH]c3n2)c(OC)c1
< 31.6 nM
